tested on: Liver microsome; assay: Intrinsic clearance in human liver microsomes; format: ADME; settings: microsomes
Property label: CLH

Prompt: If you can, please state the reported CLH value of CC(C)(CN1C(=O)c2ccccc2C1C(=O)NCCCF)c1ccc(Cl)cc1 (stereo in doubt; 23) .
Completion: < 12 µL/min/mg

Prompt: Consider the compound CC(C)(C)NC(=O)C1c2ccccc2C(=O)N1Cc1ccccc1-c1ccc(F)c(F)c1 (stereo in doubt; 16E1) and give its measured CLH.
Completion: 38 µL/min/mg

Prompt: Query: CLH; subject: CC(C)(C)NC(=O)C1c2ccccc2C(=O)N1Cc1ccccc1-c1ccc(F)c(F)c1 (single isomer, unassigned; enantiomer 2)
Completion: 103 µL/min/mg

Prompt: Given the compound CC(C)(C)NC(=O)C1c2ccccc2C(=O)N1Cc1cc(F)ccc1-c1ccccc1 (single isomer, unassigned; enantiomer 2) , what is its reported CLH?
Completion: 96 µL/min/mg

Prompt: Give its CLH value. Item: CC(C)(CN1C(=O)c2ccccc2C1C(=O)NCCCF)c1ccc(Cl)cc1 (single isomer, unassigned; enantiomer 2)
Completion: 19 µL/min/mg

Prompt: Return reported CLH; argument: CC(C)(C)NC(=O)C1c2ccccc2C(=O)N1Cc1cc(F)ccc1-c1ccc(F)cc1 (single isomer, unassigned; enantiomer 2)
Completion: 41 µL/min/mg

Data origin, for the record: ChEMBL document CHEMBL3784945
